# Method: chemical genetic growth profiling, strain panel (AID 1159580);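 also: tested at 20 µM; growth read once vehicle control cultures reached saturation at 30 °C; 1 = growth at the plate median or of vehicle wells; lower values mean less growth of the strain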
# Setup conditions: S. cerevisiae deletion strains, growth OD, locus YDR363W, strain ESC2, active compounds read low
Screen size: about 5,500 compounds; about 2,000 (36%) were called active. About 18% were inconclusive and are not listed. Some of the results follow.

Compound	normalized growth
CCCCCCCC/C=C\CCCCCCCC(=O)NCCc1ccc(O)c(O)c1	0.981
NC(Cc1ccc(N(CCCl)CCCl)cc1)C(=O)O (centres undefined)	0.986
CC[C@@H]1C=C/C=C/C[C@H](C)[C@@H](O)[C@](C)(O)C(=O)[C@H](C)[C@@H](O)[C@H](C)C(=O)[C@H](C)[C@@H](O)[C@H](C)/C=C/C(=O)O[C@H]2[C@@H](C)[C@@H](CC1)O[C@@]1(CC[C@@H](C)[C@@H](CC(C)O)O1)[C@@H]2C (some centres undefined)	0.961
O=P(O)(O)C(Cl)(Cl)P(=O)(O)O	1.04
O=[N+]([O-])c1ccc(O[C@@H]2O[C@H](CO)[C@@H](O)[C@H](O)[C@H]2F)c([N+](=O)[O-])c1	1.03
CCN(CC)CCOC(=O)c1cc(Cl)c(N)cc1OC	1
Cc1ccc(C(=O)Nc2ccc(S(=O)(=O)O)c3cc(S(=O)(=O)O)cc(S(=O)(=O)O)c23)cc1NC(=O)c1cccc(NC(=O)Nc2cccc(C(=O)Nc3cc(C(=O)Nc4ccc(S(=O)(=O)O)c5cc(S(=O)(=O)O)cc(S(=O)(=O)O)c45)ccc3C)c2)c1	1.01
O=C(O)CCCc1ccc(N(CCCl)CCCl)cc1	1
CCCCCCCCC(=O)NCc1ccc(O)c(OC)c1	0.988

The reported measurements were obtained from PubChem BioAssay AID1159580.
